# maps each entry to its In Vitro Score
# target_desc: T1, HLA-A*02:01 (human)
# T1 construct: recombinant MHC class I molecule incubated with the synthetic peptide (REVEAL, ProImmune)
# measurement_protocol: REVEAL MHC-peptide binding assay, recombinant HLA

Use these answered entries as a reference point.
Task: Which In Vitro Score value belongs to IFWVQRGSK (synthetic 9-mer variant; the entry already carries the changes) ?
Result: 33.5 % of positive control peptide

Task: Recorded In Vitro Score of FWVSRGRKK (synthetic 9-mer variant; the entry already carries the change) , please.
Result: 1.5 % of positive control peptide

Task: Given the entry AFIIFWVQR (synthetic 9-mer variant; the entry already carries the change) , report its measured In Vitro Score.
Result: 0.4 % of positive control peptide

Continue with the next binder.
Task: # In Vitro Score lookup, item VAFIIFWVL (synthetic 9-mer variant; the entry already carries the change)
Result: 0.2 % of positive control peptide
